Assay: self-splicing fitness, log relative to wild type (ln ratio); higher = more splicing; Tetrahymena group I intron in knt gene, E. coli kanamycin selection, DiMSum; sequences stand for … in CUCUCU…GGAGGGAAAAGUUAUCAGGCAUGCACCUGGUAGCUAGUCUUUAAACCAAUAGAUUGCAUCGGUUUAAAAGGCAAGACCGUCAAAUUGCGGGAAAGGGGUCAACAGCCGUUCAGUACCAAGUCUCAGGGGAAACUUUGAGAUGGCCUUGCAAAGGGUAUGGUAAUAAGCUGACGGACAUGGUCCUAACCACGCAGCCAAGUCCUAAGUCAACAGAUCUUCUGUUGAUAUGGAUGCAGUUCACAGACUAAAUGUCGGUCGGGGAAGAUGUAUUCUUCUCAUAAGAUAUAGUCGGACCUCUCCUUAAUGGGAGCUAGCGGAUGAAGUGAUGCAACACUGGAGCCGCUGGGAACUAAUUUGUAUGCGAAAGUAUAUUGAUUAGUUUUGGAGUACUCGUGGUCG;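 further: selection with 25 µg/mL kanamycin versus none on LB agar overnight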
Details: 37 °C
For each of the sequences below, state its self-splicing fitness (ln).
Form rule: numeric answer, no unit written next to it.

Prompt: Name the reported self-splicing fitness (ln) value associated with the sequence GUGUAGCAAUAUUACGGUGU
Response: -0.0252

Prompt: Do the same for GUCUAGCAAUAUUACGAUAC please
Response: -0.815

Prompt: Do the same for ACGAAGCAAUAUUACGUUAG please
Response: -2.44

Prompt: Do the same for GGAGAGCAAUAUUACGUUGG please
Response: -2.64

Prompt: Do the same for CUCUAGCAAUAUUACGAUCA please
Response: -2.58

Prompt: Do the same for GCUUAGCAAUAUUACGUCUU please
Response: -0.549

Prompt: Do the same for AGCAAGCAAUAUUACGUAAC please
Response: -2.09

Prompt: Do the same for UGUCAGCAAUAUUACGGCAG please
Response: -0.219

Prompt: Do the same for UAACAGCAAUAUUACGAGAU please
Response: -2.9

Prompt: Do the same for AUACAGCAAUAUUACGGCAU please
Response: 0.525

Prompt: Do the same for UUAGAGCAAUAUUACGUGAG please
Response: -0.875

Prompt: Do the same for UGAUAGCAAUAUUACGCGCC please
Response: 0.00337

Prompt: Do the same for UUCGAGCAAUAUUACGUCAU please
Response: -3.46

Prompt: Do the same for GCCUAGCAAUAUUACGUCUA please
Response: -1.73

Prompt: Do the same for GAGAAGCAAUAUUACGCCUU please
Response: -0.767

Prompt: Do the same for GCUAAGCAAUAUUACGGCGA please
Response: -0.247

Prompt: Do the same for GCACAGCAAUAUUACGUAAG please
Response: -0.717

Prompt: Do the same for GGGUAGCAAUAUUACGUAAC please
Response: -0.795

Prompt: Do the same for UUGUAGCAAUAUUACGAUGA please
Response: 0.0216

Prompt: Do the same for CGAUAGCAAUAUUACGGAUG please
Response: 0.18

Prompt: Do the same for AAGGAGCAAUAUUACGCCCA please
Response: -1.46

Prompt: Do the same for CCUAAGCAAUAUUACGGGAU please
Response: -3.29

Prompt: Do the same for CACCAGCAAUAUUACGAGUC please
Response: -1.74

Prompt: Do the same for ACGGAGCAAUAUUACGGAAA please
Response: -2.15

Prompt: Do the same for CGCCAGCAAUAUUACGGCCA please
Response: 0.0865

Prompt: Do the same for CGAAAGCAAUAUUACGUCCU please
Response: -0.445

Prompt: Do the same for UGGGAGCAAUAUUACGCUGG please
Response: -1.55

Prompt: Do the same for ACCGAGCAAUAUUACGGAUU please
Response: -1.94

Prompt: Do the same for UCAAAGCAAUAUUACGGUGA please
Response: -0.408

Prompt: Do the same for CACCAGCAAUAUUACGUAUA please
Response: -2.33

Prompt: Do the same for AGCAAGCAAUAUUACGUGCC please
Response: -1.63

Prompt: Do the same for CGACAGCAAUAUUACGCAAC please
Response: -2.61

Prompt: Do the same for GAUGAGCAAUAUUACGUGCA please
Response: -1.82

Prompt: Do the same for GCAUAGCAAUAUUACGUGGG please
Response: -2.82

Prompt: Do the same for AGUCAGCAAUAUUACGUUUC please
Response: -1.34

Prompt: Do the same for CCCUAGCAAUAUUACGUUCG please
Response: -2.64

Prompt: Do the same for UGACAGCAAUAUUACGAUAU please
Response: -1.9

Prompt: Do the same for CAGUAGCAAUAUUACGGGGC please
Response: -2.55

Prompt: Do the same for GUUGAGCAAUAUUACGAUUU please
Response: -1.64

Prompt: Do the same for UCACAGCAAUAUUACGACCA please
Response: 0.0251

Prompt: Do the same for GAUAAGCAAUAUUACGUCGG please
Response: -3.35

Prompt: Do the same for UGAGAGCAAUAUUACGGAAG please
Response: -2.2

Prompt: Do the same for GACAAGCAAUAUUACGUGCC please
Response: -1.21

Prompt: Do the same for AAUUAGCAAUAUUACGCCCC please
Response: -0.798

Prompt: Do the same for CUAUAGCAAUAUUACGGUCC please
Response: -2.56

Prompt: Do the same for GGGCAGCAAUAUUACGGUGA please
Response: -0.671

Prompt: Do the same for GGAUAGCAAUAUUACGCGAC please
Response: -1.92

Prompt: Do the same for AAUGAGCAAUAUUACGGAUC please
Response: -0.974

Prompt: Do the same for GCCUAGCAAUAUUACGCUUA please
Response: -0.807

Prompt: Do the same for GGUAAGCAAUAUUACGAGAC please
Response: -0.652

Prompt: Do the same for CCGAAGCAAUAUUACGCUGG please
Response: -3.49

Prompt: Do the same for UCAAAGCAAUAUUACGUUUU please
Response: -3.18

Prompt: Do the same for AUGUAGCAAUAUUACGUCCU please
Response: 0.252

Prompt: Do the same for UACUAGCAAUAUUACGCCAA please
Response: -1.02

Prompt: Do the same for AACUAGCAAUAUUACGACCG please
Response: 0.134

Prompt: Do the same for CGACAGCAAUAUUACGCUAA please
Response: -1.57

Prompt: Do the same for UGGUAGCAAUAUUACGACCG please
Response: -0.981

Prompt: Do the same for CGUGAGCAAUAUUACGUCGG please
Response: -0.606

Prompt: Do the same for UACGAGCAAUAUUACGUAAA please
Response: -2.84

Prompt: Do the same for ACCAAGCAAUAUUACGCAGC please
Response: -1.12

Prompt: Do the same for CGUGAGCAAUAUUACGUUAA please
Response: -3.55

Prompt: Do the same for GCUGAGCAAUAUUACGCCGU please
Response: -0.103

Prompt: Do the same for UGGGAGCAAUAUUACGCAAA please
Response: -2.43

Prompt: Do the same for CGUCAGCAAUAUUACGCUCU please
Response: -0.257

Prompt: Do the same for AGAUAGCAAUAUUACGCUCA please
Response: -0.082

Prompt: Do the same for ACCAAGCAAUAUUACGAUAG please
Response: -2.7

Prompt: Do the same for CCCGAGCAAUAUUACGCCUU please
Response: -1.56

Where do the numbers come from? From the supplement of paper PMC7877785.
